METHOD: Quantitative highthroughput screen to assess conditional lethalithy of SEM cells grown in Human Plasma-Like Medium with dialyzed fetal bovine serum (HPLM+ds) (AID 1963882); note: nearly all actives have a fitted effect of over 35% in size
CONDITION_INFO: SEM B-ALL cells in HPLM+ds, CellTiter-Glo viability, 48 h; series mostly up to 45.8 µM
Procedure: Assay Provider: Jason Cantor Ph.D. Department of Biochemistry University of Wisconsin-Madison, Madison, WI, USA Chemical screening studies have identified drug sensitivities across hundreds of cancer cell lines but most putative therapeutics fail to translate. […] Sets of conditional anticancer compounds spanned phases of clinical development and included non-oncology drugs were assessed. […] 6; Detection; Luminescence, Viewlux PerkinElmer. […]
Records with an inconclusive call do not appear. Calls of active or inactive are those of the source. Calls come from the whole dose curve; as a rule, active = well fitted cell-killing curve with a large enough effect; inconclusive = small, poorly fitted or top-dose-only effect, or effect the other way; inactive = no such curve, though single readings can be large or run the other way.
Classes used: true (active), false (inactive)

MOLECULE	CLASSIFICATION
CC[C@@H]1C(=O)N(C)c2cnc(Nc3ccc(C(=O)NC4CCC(N5CCN(CC6CC6)CC5)CC4)cc3OC)nc2N1C(C)C (some centres not stated)	true
CC(O)C1C(=O)N2C(C(=O)O)=C(SC3CNC(C(=O)N(C)C)C3)C(C)C12 (configuration not stated)	false
Cn1c(=O)c2c(ncn2CC(O)CO)n(C)c1=O (configuration not stated)	false
C[C@]12CCC(=O)C=C1CC[C@@H]1[C@H]2[C@@H](O)C[C@@]2(C)[C@H]1CC[C@]2(O)C(=O)CO	false
CC=C(C(=CC)c1ccc(O)cc1)c1ccc(O)cc1	false
Nc1nccc(-c2ccc3noc(-c4ccc(Cl)cc4)c3c2)n1	false
COc1ccc(-c2cc(=O)c3c(O)cc(O[C@@H]4O[C@H](CO[C@@H]5O[C@@H](C)[C@H](O)[C@@H](O)[C@@H]5O)[C@@H](O)[C@H](O)[C@@H]4O)cc3o2)cc1O	false
COc1ccc(C2CNC(=O)C2)cc1OC1CCCC1 (configuration not stated)	false
CCNC(=O)[C@H]1O[C@@H](n2cnc3c(N)nc(NCCc4ccc(CCC(=O)O)cc4)nc32)[C@H](O)[C@H]1O	false
COc1cc(C(C)=O)ccc1OCCCN1CCC(c2noc3cc(F)ccc23)CC1	false
Nc1cccc2c1CN(C1CCC(=O)NC1=O)C2=O (configuration not stated)	false
COc1cc(F)c(C(C)C)cc1-c1ccc(C(F)(F)F)cc1CN1C(=O)O[C@H](c2cc(C(F)(F)F)cc(C(F)(F)F)c2)[C@@H]1C	false
O=C(c1ccc(F)c(F)c1Nc1ccc(I)cc1F)N1CC(O)([C@H]2CCCCN2)C1	false
COc1ccc(-c2nc(N3CCOCC3)c3sc(CN(C)c4ncc(C(=O)NO)cn4)cc3n2)cn1	true
CNC(=O)c1ccc(Nc2ncc(C(F)(F)F)c(NCc3nccnc3N(C)S(C)(=O)=O)n2)cc1	true
CCOCC(O)COc1ccc(NC(=O)CC[S+](C)C)cc1 (configuration not stated)	false
Nc1nc(N)c2nc(-c3cccc(O)c3)c(-c3cccc(O)c3)nc2n1	true
